Where do the numbers come from? From patent US10351575B2.

# system_tested: WNK2 (Homo sapiens (Human))
# Sequence (Q9Y3S1 whole entry): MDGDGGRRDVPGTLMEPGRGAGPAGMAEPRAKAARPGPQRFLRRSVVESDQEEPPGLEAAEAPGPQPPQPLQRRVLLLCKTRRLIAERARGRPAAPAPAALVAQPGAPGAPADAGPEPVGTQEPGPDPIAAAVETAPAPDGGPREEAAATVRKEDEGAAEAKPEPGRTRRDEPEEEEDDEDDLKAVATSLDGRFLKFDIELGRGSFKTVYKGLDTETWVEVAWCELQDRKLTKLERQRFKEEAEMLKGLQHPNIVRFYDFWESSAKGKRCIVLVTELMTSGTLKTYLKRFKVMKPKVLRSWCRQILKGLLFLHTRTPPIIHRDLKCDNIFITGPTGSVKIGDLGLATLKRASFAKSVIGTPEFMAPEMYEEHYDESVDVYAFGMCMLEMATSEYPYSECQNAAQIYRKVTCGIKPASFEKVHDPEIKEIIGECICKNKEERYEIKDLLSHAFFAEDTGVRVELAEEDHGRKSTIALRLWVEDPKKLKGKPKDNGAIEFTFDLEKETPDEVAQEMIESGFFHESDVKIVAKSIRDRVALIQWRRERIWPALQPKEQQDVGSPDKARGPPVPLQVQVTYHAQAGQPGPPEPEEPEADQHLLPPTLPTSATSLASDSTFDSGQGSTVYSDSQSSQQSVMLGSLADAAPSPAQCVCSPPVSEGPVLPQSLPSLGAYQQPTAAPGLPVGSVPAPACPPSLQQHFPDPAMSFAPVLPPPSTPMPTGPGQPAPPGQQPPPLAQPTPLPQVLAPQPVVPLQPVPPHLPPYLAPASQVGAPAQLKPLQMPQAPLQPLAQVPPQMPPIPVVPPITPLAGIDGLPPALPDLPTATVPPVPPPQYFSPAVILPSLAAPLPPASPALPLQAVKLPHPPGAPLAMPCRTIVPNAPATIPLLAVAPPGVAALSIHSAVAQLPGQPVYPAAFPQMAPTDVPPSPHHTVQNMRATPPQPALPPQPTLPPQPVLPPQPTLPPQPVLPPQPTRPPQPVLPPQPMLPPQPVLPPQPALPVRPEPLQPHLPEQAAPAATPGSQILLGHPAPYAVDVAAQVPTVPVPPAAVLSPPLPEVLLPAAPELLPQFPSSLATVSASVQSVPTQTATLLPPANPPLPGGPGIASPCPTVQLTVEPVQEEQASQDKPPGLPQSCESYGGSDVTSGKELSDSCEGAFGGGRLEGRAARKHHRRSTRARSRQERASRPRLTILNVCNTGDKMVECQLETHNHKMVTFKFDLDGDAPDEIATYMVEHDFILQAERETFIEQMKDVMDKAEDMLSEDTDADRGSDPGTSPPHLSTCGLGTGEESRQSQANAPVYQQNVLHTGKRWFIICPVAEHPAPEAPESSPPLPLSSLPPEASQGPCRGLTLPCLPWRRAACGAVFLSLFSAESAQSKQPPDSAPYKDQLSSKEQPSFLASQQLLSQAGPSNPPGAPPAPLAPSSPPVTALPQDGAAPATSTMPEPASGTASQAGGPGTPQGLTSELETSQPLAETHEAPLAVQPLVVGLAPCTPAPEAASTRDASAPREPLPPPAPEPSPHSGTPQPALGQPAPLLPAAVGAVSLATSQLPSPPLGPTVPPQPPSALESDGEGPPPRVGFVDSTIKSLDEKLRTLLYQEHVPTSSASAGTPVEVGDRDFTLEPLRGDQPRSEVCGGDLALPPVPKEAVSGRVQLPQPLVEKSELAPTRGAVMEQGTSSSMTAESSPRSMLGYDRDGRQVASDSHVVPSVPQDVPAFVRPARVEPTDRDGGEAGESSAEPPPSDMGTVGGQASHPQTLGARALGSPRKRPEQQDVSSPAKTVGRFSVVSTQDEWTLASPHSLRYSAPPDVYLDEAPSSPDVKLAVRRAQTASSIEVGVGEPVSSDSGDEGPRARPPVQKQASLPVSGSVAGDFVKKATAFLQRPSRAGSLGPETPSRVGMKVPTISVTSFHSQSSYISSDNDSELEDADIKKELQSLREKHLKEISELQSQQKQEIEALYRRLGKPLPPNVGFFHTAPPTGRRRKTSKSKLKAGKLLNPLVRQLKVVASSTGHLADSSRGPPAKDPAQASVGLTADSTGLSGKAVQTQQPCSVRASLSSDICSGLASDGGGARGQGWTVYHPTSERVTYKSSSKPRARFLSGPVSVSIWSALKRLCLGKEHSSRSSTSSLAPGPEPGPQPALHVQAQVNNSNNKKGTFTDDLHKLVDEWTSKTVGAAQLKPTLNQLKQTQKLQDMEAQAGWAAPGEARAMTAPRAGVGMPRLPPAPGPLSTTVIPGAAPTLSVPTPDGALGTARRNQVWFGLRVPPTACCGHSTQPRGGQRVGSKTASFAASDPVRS
# protocol_text: KinaseProfiler off-target kinase profiling
# Format: biochemical
# assay_setup: 10 μM, ATP near Km
# Procedure: Representative compounds (Examples 12, 32, 26 and 2) of the invention were tested for off-target kinase activity at a concentration of 10 μM by Millipore, Inc. in their KinaseProfiler™ service against all the kinases available in their full kinase panel. Compounds were run in duplicate at a concentration of ATP near the Km for each individual kinase according to Millipore's specifications. […]
recorded_endpoint: Avg. POC (POC)

Cc1c(-c2ccc(=O)n(C)c2)nn(-c2ccccc2)c1NC(=O)NC1CN(CC(F)(F)F)Cc2ccccc21 (stereo not shown) [Example 26] : 108
Cc1c(-c2cnn(C)c2)nn(-c2ccccc2)c1NC(=O)NC1CCOc2cc(F)ccc21 (stereo not shown) [Example 12] : 106.5
Cc1c(-c2cnn(C)c2)nn(-c2ccccc2)c1NC(=O)N[C@H]1CCCc2ccccc21 [Example 2] : 99
COCc1ccc2c(c1)C(NC(=O)Nc1c(C)c(-c3cnn(C)c3)nn1-c1ccccc1)COC2 (stereo not shown) [Example 32] : 108.5

* * *

# system_tested: Tie2 (Homo sapiens (Human))
# protocol_text: KinaseProfiler off-target kinase profiling
# Type: biochemical
# assay_setup: 10 μM, ATP near Km
recorded_endpoint: Avg. POC (POC)

Cc1c(-c2cnn(C)c2)nn(-c2ccccc2)c1NC(=O)NC1CCOc2cc(F)ccc21 (stereo not shown) : 104.5
Cc1c(-c2ccc(=O)n(C)c2)nn(-c2ccccc2)c1NC(=O)NC1CN(CC(F)(F)F)Cc2ccccc21 (stereo not shown) : 106.5
Cc1c(-c2cnn(C)c2)nn(-c2ccccc2)c1NC(=O)N[C@H]1CCCc2ccccc21 : 126
COCc1ccc2c(c1)C(NC(=O)Nc1c(C)c(-c3cnn(C)c3)nn1-c1ccccc1)COC2 (stereo not shown) : 121

* * *

# system_tested: MuSK (Homo sapiens (Human), UniProt O15146)
# Sequence (O15146 24-869): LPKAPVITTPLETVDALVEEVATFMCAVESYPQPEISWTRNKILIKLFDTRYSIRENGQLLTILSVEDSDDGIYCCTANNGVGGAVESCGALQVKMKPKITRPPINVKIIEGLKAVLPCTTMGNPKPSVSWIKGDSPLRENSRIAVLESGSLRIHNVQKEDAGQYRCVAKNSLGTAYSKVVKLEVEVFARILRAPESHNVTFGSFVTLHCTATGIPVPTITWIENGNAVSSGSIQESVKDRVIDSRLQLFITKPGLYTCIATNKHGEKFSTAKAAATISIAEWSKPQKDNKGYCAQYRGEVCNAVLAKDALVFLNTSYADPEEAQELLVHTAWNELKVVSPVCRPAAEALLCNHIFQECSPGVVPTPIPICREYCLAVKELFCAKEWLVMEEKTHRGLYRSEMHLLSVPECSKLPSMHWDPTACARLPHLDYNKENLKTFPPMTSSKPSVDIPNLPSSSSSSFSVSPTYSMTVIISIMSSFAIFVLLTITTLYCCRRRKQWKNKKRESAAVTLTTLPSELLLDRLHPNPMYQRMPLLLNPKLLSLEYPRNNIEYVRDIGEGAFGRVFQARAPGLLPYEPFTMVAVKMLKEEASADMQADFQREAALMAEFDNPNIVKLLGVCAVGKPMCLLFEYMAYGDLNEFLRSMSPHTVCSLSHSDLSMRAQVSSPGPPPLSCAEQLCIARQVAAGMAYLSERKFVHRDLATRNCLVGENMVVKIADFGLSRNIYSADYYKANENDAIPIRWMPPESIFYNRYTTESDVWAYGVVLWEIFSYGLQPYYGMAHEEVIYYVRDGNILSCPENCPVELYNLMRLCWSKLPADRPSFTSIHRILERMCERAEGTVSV
# protocol_text: KinaseProfiler off-target kinase profiling
# Assay type: biochemical
# assay_setup: 10 μM, ATP near Km
recorded_endpoint: Avg. POC (POC)

Cc1c(-c2cnn(C)c2)nn(-c2ccccc2)c1NC(=O)NC1CCOc2cc(F)ccc21 (stereo not shown) [Example 12] : 98.5
COCc1ccc2c(c1)C(NC(=O)Nc1c(C)c(-c3cnn(C)c3)nn1-c1ccccc1)COC2 (stereo not shown) [Example 32] : 104.5
Cc1c(-c2ccc(=O)n(C)c2)nn(-c2ccccc2)c1NC(=O)NC1CN(CC(F)(F)F)Cc2ccccc21 (stereo not shown) [Example 26] : 99.5
Cc1c(-c2cnn(C)c2)nn(-c2ccccc2)c1NC(=O)N[C@H]1CCCc2ccccc21 [Example 2] : 103.5

* * *

# system_tested: TAO2 (Homo sapiens (Human))
# Sequence (Q9UL54 whole entry): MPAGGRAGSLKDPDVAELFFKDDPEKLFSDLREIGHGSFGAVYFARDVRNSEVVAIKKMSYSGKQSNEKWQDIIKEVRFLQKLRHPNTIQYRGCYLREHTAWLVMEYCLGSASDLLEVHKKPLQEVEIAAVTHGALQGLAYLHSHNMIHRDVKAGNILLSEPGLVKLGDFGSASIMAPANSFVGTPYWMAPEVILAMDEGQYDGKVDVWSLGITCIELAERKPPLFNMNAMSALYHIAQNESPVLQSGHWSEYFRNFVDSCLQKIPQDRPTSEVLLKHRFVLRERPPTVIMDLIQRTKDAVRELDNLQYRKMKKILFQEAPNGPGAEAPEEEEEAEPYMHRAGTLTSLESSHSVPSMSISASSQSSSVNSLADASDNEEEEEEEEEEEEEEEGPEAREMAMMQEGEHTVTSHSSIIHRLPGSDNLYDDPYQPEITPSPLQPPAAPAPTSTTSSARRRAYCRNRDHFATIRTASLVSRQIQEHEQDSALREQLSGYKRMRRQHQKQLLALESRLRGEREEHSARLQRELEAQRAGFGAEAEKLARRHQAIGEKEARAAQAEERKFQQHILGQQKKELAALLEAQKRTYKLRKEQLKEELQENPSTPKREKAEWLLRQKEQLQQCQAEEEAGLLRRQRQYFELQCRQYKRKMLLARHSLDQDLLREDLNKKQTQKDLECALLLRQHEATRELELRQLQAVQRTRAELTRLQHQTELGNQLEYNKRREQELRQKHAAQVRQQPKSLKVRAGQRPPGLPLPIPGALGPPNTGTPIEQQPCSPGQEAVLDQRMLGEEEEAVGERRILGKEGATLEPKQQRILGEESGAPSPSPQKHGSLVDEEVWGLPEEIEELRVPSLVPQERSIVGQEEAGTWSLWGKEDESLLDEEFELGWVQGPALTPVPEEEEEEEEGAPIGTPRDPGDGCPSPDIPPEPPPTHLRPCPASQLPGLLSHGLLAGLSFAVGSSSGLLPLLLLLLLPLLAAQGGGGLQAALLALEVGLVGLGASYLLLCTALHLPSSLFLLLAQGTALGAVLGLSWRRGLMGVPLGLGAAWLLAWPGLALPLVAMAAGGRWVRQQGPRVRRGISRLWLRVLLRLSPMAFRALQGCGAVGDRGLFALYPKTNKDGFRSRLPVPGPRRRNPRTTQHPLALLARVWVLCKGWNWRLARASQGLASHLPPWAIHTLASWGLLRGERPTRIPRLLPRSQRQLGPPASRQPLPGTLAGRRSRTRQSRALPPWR
# protocol_text: KinaseProfiler off-target kinase profiling
# Format: biochemical
# assay_setup: 10 μM, ATP near Km
recorded_endpoint: Avg. POC (POC)

Cc1c(-c2cnn(C)c2)nn(-c2ccccc2)c1NC(=O)N[C@H]1CCCc2ccccc21 : 110
COCc1ccc2c(c1)C(NC(=O)Nc1c(C)c(-c3cnn(C)c3)nn1-c1ccccc1)COC2 (stereo not shown) : 104
Cc1c(-c2cnn(C)c2)nn(-c2ccccc2)c1NC(=O)NC1CCOc2cc(F)ccc21 (stereo not shown) : 121
Cc1c(-c2ccc(=O)n(C)c2)nn(-c2ccccc2)c1NC(=O)NC1CN(CC(F)(F)F)Cc2ccccc21 (stereo not shown) : 111
